Each recorded value in this set is attributed to patent US8507684B2.

- experimental details: Aqueous solubility of the salts determined by HPLC
- Assay type: physicochemical
- assay conditions: thermodynamic from solid; suspension in water shaken 2 h at 20° C. and 400 rpm, filtered (0.1 μm), concentration by HPLC; read-out: Solubility in H2O
parameter: solubility at 2 h
Your reply should be a number followed by the unit it is expressed in.

Here are 5 compounds together with their reported answers.
[
  {
    "compound": "CNc1ncc(-c2ccc3c(=O)c(C(=O)O)cn(C4CC4)c3c2C)cc1C.CS(=O)(=O)O [Mesylate]",
    "solubility at 2 h": "113000 µg/mL"
  },
  {
    "compound": "CNc1ncc(-c2ccc3c(=O)c(C(=O)O)cn(C4CC4)c3c2C)cc1C.O=C(O)CC(O)(CC(=O)O)C(=O)O [Citrate]",
    "solubility at 2 h": "5220 µg/mL"
  },
  {
    "compound": "CNc1ncc(-c2ccc3c(=O)c(C(=O)O)cn(C4CC4)c3c2C)cc1C [Free drug, reference compound]",
    "solubility at 2 h": "19 µg/mL"
  },
  {
    "compound": "CNc1ncc(-c2ccc3c(=O)c(C(=O)[O-])cn(C4CC4)c3c2C)cc1C.[Na+] [Sodium]",
    "solubility at 2 h": "159000 µg/mL"
  },
  {
    "compound": "CNc1ncc(-c2ccc3c(=O)c(C(=O)O)cn(C4CC4)c3c2C)cc1C.O=C(O)/C=C\\C(=O)O [Maleate]",
    "solubility at 2 h": "149 µg/mL"
  }
]

Provide each entry's solubility at 2 h from the list below.
1. CNc1ncc(-c2ccc3c(=O)c(C(=O)O)cn(C4CC4)c3c2C)cc1C.O=C(O)C(O)C(O)C(=O)O [L-Tartrate]
2. CNc1ncc(-c2ccc3c(=O)c(C(=O)[O-])cn(C4CC4)c3c2C)cc1C.[K+] [Potassium]
3. CNc1ncc(-c2ccc3c(=O)c(C(=O)O)cn(C4CC4)c3c2C)cc1C.Cl.O [Hydrochloride monohydrate]

output:
4600 µg/mL
109000 µg/mL
2000 µg/mL

====

- experimental details: Aqueous solubility of the salts determined by HPLC
- Type: physicochemical
- assay conditions: pH of Table 2 for the aqueous solubility samples (water, 2 h at 20° C.)
Assignment: determine reported pH for the given compounds.
Give bare numbers.

Provide each entry's pH from the list below.
1. CNc1ncc(-c2ccc3c(=O)c(C(=O)O)cn(C4CC4)c3c2C)cc1C [Free drug, reference compound]
2. CNc1ncc(-c2ccc3c(=O)c(C(=O)O)cn(C4CC4)c3c2C)cc1C.Cl.O [Hydrochloride monohydrate]
3. CNc1ncc(-c2ccc3c(=O)c(C(=O)[O-])cn(C4CC4)c3c2C)cc1C.[Na+] [Sodium]
4. CNc1ncc(-c2ccc3c(=O)c(C(=O)O)cn(C4CC4)c3c2C)cc1C.O=C(O)C(O)C(O)C(=O)O [L-Tartrate]

output:
1. 8.5
2. 2.8
3. 9.0
4. 2.5
